Target: OsWOX13 (Oryza sativa, UniProt Q5QMM3 1-267)
Sequence: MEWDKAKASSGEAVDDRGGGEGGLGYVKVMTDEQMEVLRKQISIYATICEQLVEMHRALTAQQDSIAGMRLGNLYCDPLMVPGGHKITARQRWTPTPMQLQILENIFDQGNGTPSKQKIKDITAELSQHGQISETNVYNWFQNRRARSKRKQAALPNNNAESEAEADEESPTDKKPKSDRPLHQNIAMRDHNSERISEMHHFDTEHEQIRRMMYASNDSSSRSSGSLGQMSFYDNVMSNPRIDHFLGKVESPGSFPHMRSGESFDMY
Assay: protein-binding microarray (RPBM); PBS, 2% BSA, 51.3 ng/ul salmon testes DNA, 50 uM zinc acetate, 200 nM TF, 25 C, 1 h; high values mean tight binding
Conditions: protein: recombinant; tags: N-terminal polyhistidine and DsRed monomer fusion (pET32a); label: CyDye5-dUTP incorporated in the synthesized complementary strand; 3' TTTTT single-stranded linker to array surface; dsDNA, one strand shown
The full ranking holds about 35,000 sequences; the median of “fluorescence intensity (a.u.)” is about 10,000, and the highest 2% start at about 52,000. This excerpt belongs to a sample that is enriched for the highest values.
observedProperty: binding signal

Use the examples below as a reference point.
| sequenceString | measuredValue |
| --- | --- |
| TTCATGATATCAATTTATGAGCATCAAAAGATTACCATGCCGGAGTCACCTAGTGCAG | 6980 fluorescence intensity (a.u.) |
| TCATTAATGATCTAATCACCAACTAAACTCCCTATCAATTCGGAGTCACCTAGTGCAG | 18200 fluorescence intensity (a.u.) |
| CAATGCTTGCTTGATTGGGAGCGCGTCGTCGAGGGCGTCGCGGAGTCACCTAGTGCAG | 14400 fluorescence intensity (a.u.) |
| TTTGTTATAATTGATATTTAATTAATCATATGGTAATTACCGGAGTCACCTAGTGCAG | 27800 fluorescence intensity (a.u.) |
| CAAAAGAACAATTATTGATCAACTAATGTACACGTCCCAGCGGAGTCACCTAGTGCAG | 13900 fluorescence intensity (a.u.) |

Query block: // fetch OsWOX13 (Oryza sativa, UniProt Q5QMM3 1-267) binding signal for `TCTAATTTATTAGAGCGCCACATGACGGCTTGAGAGCGTTCGGAGTCACCTAGTGCAG`
Result block: 19200 fluorescence intensity (a.u.)

Query block: // repeat for `ACGTTTAATTACGGGAAACCGGCTAAAACCCACCACACATCGGAGTCACCTAGTGCAG` and report
Result block: 6640 fluorescence intensity (a.u.)

----------
Listed below: binding signal values for each entry.
Molecular target: OsWOX13 (Oryza sativa, UniProt Q5QMM3 1-267)
Sequence: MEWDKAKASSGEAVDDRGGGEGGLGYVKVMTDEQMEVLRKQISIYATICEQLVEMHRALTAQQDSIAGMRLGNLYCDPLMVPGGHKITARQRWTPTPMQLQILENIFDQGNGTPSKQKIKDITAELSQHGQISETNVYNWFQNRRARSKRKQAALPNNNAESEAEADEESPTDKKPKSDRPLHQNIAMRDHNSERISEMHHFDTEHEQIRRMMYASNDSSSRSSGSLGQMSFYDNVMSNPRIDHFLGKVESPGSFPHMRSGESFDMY
Experiment: protein-binding microarray (RPBM); PBS, 2% BSA, 51.3 ng/ul salmon testes DNA, 50 uM zinc acetate, 200 nM TF, 25 C, 1 h; high values mean tight binding
Conditions: protein: recombinant; tags: N-terminal polyhistidine and DsRed monomer fusion (pET32a); label: CyDye5-dUTP incorporated in the synthesized complementary strand; 3' TTTTT single-stranded linker to array surface; dsDNA, one strand shown
Over roughly 35,000 sequences, “fluorescence intensity (a.u.)” has its median near 10,000; the highest 2% begin near 52,000. This excerpt belongs to a sample that is enriched for the highest values.

Use the examples below as a reference point.
| sequenceString | binding signal |
| --- | --- |
| GTCAATTTAGATTGCCGCGCTTACAATTAGTTCTCAGGAACGGAGTCACCTAGTGCAG | 15100 fluorescence intensity (a.u.) |
| AAATGTCTTGTAGATTGATATATTACATGGAACAAAATTTCGGAGTCACCTAGTGCAG | 3240 fluorescence intensity (a.u.) |
| CGGTAGTGATTGATTCGGATGATTTCACCAGTAGGATTGGCGGAGTCACCTAGTGCAG | 65300 fluorescence intensity (a.u.) |

Query block: Need binding signal of `CAATAATTGAGTGATTTGGCCCAGTCCAGGAACTAGTAAGCGGAGTCACCTAGTGCAG` , thanks.
Result block: 56100 fluorescence intensity (a.u.)

Query block: // repeat for `GATGGTCTATTAGTCCGTGATTAATTAAGTATTAGCTATTCGGAGTCACCTAGTGCAG` and report
Result block: 8910 fluorescence intensity (a.u.)

Query block: // repeat for `ATTTCTGATTGGTGAGATGGGTGATTCGGTAGGCCATTGGCGGAGTCACCTAGTGCAG` and report
Result block: 40100 fluorescence intensity (a.u.)

Query block: // repeat for `GTTAATTTTGTTTAATTAATGGTGGAAGCAGCCATCATCACGGAGTCACCTAGTGCAG` and report
Result block: 38200 fluorescence intensity (a.u.)

Query block: // repeat for `GCCCTTGATTTCTGACTAGATTTGTGTTATTCTACTTACACGGAGTCACCTAGTGCAG` and report
Result block: 27200 fluorescence intensity (a.u.)

Query block: // repeat for `TTGACCAATCAATTACTCACTGGTACGGAAAACACTATAGCGGAGTCACCTAGTGCAG` and report
Result block: 23300 fluorescence intensity (a.u.)

Query block: // repeat for `AGAGGGTGGGGACATGGGGATTGATTTCACCTGTAGGATTCGGAGTCACCTAGTGCAG` and report
Result block: 3430 fluorescence intensity (a.u.)

Query block: // repeat for `CAACTTGATTAGTAGTAGTACTAGTTTGATTTTGTCCTGGCGGAGTCACCTAGTGCAG` and report
Result block: 54200 fluorescence intensity (a.u.)

Query block: // repeat for `TGGCTCTGATCCATCAATTAGGATTTGCCAGTGCCTCTCCCGGAGTCACCTAGTGCAG` and report
Result block: 5390 fluorescence intensity (a.u.)

Query block: // repeat for `TTTAATTTGTTCATTAAAGACCTAAGAGCTAATAAACGGACGGAGTCACCTAGTGCAG` and report
Result block: 23100 fluorescence intensity (a.u.)

----------
Molecular target: OsWOX13 (Oryza sativa, UniProt Q5QMM3 1-267)
Sequence: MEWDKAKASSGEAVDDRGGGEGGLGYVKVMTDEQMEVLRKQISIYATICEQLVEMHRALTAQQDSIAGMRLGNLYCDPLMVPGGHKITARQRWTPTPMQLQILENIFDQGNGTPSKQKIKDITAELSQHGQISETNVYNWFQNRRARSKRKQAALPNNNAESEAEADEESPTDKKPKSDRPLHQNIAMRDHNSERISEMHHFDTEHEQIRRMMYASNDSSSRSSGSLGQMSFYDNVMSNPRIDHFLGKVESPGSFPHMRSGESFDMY
Assay: protein-binding microarray (RPBM); PBS, 2% BSA, 51.3 ng/ul salmon testes DNA, 50 uM zinc acetate, 200 nM TF, 25 C, 1 h; high values mean tight binding
Details: protein: recombinant; tags: N-terminal polyhistidine and DsRed monomer fusion (pET32a); label: CyDye5-dUTP incorporated in the synthesized complementary strand; 3' TTTTT single-stranded linker to array surface; dsDNA, one strand shown
Whole data set: some 35,000 sequences, median “fluorescence intensity (a.u.)” near 10,000, cut for the highest 2% near 52,000. The entries come from a sample that favours the highest values as a whole.
Listed below: binding signal values for each entry.

Query block: Need binding signal of `ATCCTTATTTGATTCCTGATCAAATTAATACTGCTGCTTTCGGAGTCACCTAGTGCAG` , thanks.
Result block: 3200 fluorescence intensity (a.u.)

Query block: // repeat for `ATGAATTAGATTAGATGTATATTTGAGGGAGTTAAAGTGGCGGAGTCACCTAGTGCAG` and report
Result block: 20800 fluorescence intensity (a.u.)

Query block: // repeat for `ATTAGCGCATGATTAATTGATTATTAACTATTTTAAACTTCGGAGTCACCTAGTGCAG` and report
Result block: 27400 fluorescence intensity (a.u.)

Query block: // repeat for `CTTATTCACTTGTGATTGTGATGATTAGCGAACAGAGTTGCGGAGTCACCTAGTGCAG` and report
Result block: 18700 fluorescence intensity (a.u.)

Query block: // repeat for `TGAAAGAAGAGATGATTGGGAAACACCATTAATAGGGTGGCGGAGTCACCTAGTGCAG` and report
Result block: 10500 fluorescence intensity (a.u.)

Query block: // repeat for `TAATCAATTAAGAAATTAATTAATCCTTTGCTCCCTGATTCGGAGTCACCTAGTGCAG` and report
Result block: 54400 fluorescence intensity (a.u.)

Query block: // repeat for `TACTACTAATTATTGTCTTCTTAGTAATCACCAAGTGTGCCGGAGTCACCTAGTGCAG` and report
Result block: 20700 fluorescence intensity (a.u.)

Query block: // repeat for `ATAAAATTAAAGTAAATGTGATACAAACGTGGCATGTTTGCGGAGTCACCTAGTGCAG` and report
Result block: 8490 fluorescence intensity (a.u.)

Query block: // repeat for `ATGATTACTAAAACTGTACTTAAAGGCAATGGTTTCTGTACGGAGTCACCTAGTGCAG` and report
Result block: 13900 fluorescence intensity (a.u.)

Query block: // repeat for `TTCATTAATCACAGATTCAATTTGCTCCTATATATAATCCCGGAGTCACCTAGTGCAG` and report
Result block: 12700 fluorescence intensity (a.u.)

Query block: // repeat for `CTATAATTTGTAGATGATGTAGTATAATTATATTTAATCACGGAGTCACCTAGTGCAG` and report
Result block: 37300 fluorescence intensity (a.u.)

Query block: // repeat for `ATAGATAGATTTCTCCATAAGTAATTACATTGTAGGTAGGCGGAGTCACCTAGTGCAG` and report
Result block: 28500 fluorescence intensity (a.u.)
